Molecular target: hNPRA (Homo sapiens)
Sequence (P16066 33-1061): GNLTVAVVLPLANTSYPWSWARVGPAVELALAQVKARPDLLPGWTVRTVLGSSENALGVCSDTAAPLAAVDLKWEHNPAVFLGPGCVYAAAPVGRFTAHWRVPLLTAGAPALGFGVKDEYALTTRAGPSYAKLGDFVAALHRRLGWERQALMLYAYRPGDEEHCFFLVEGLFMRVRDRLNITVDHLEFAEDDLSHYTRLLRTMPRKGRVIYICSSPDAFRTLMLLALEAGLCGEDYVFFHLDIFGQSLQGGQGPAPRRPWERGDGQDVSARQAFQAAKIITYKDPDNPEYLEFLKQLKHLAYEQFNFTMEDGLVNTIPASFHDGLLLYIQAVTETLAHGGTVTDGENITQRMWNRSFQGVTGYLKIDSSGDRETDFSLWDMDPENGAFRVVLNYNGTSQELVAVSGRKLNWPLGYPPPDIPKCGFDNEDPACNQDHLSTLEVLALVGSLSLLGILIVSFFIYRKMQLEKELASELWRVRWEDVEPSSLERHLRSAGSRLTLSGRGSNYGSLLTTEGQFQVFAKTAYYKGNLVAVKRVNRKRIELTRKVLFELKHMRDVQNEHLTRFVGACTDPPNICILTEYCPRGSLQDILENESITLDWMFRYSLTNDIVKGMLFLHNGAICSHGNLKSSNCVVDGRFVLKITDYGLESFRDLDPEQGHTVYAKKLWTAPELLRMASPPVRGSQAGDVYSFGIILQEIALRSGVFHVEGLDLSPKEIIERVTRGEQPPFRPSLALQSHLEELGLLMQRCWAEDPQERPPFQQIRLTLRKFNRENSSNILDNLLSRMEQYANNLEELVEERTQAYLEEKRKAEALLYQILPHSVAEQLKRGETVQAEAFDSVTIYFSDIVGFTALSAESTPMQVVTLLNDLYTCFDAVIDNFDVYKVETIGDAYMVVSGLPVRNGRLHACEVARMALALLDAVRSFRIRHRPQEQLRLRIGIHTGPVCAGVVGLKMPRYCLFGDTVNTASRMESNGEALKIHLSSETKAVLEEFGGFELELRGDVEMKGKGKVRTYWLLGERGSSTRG
Test: NPRA Functional Cell Assay (cGMP HTRF, NPRA HEK JumpIn stable cells)
Details: cGMP production, 1 hour at 37° C., 10-point dose response
property-label: EC50 (nM)

INSERT INTO measurements (compound, property_label, result_value) VALUES
  ('CC(C)(C)[C@H]1CCc2nc3sc(C(=O)N[C@H](CCNC4CNC(=O)C4)c4ccc(-c5ccc(=O)[nH]c5)cc4)cc3cc2C1 (mixture of isomers) [Example 57]', 'EC50', 889),
  ('CC(C)(C)[C@H]1CCc2nc3sc(C(=O)N[C@H](CCN4CCC(O)CC4)c4cccc(NC(=O)C5CCNC5)c4)nc3cc2C1 (mixture of isomers) [Example 118]', 'EC50', 985),
  ('CN(CC[C@@H](NC(=O)c1nc2cc3c(nc2s1)CC[C@H](C(C)(C)C)C3)c1ccc(NS(=O)(=O)N(C)C)nc1)Cc1ccn[nH]1 (racemic) [Example 214]', 'EC50', 1240),
  ('CC(C)(C)[C@H]1CCc2nc3sc(C(=O)N[C@H](CCN4C[C@@H](O)[C@@H](O)C4)c4ccc(-c5ccc(=O)[nH]c5)cc4)cc3cc2C1 (racemic) [Example 61]', 'EC50', 1040),
  ('CC(C)(C)[C@H]1CCc2nc3sc(C(=O)N[C@H](CCN4CCCCC4)c4cccc(NS(C)(=O)=O)c4)cc3cc2C1 (racemic) [Example 11]', 'EC50', 718),
  ('Cc1n[nH]cc1-c1ccc([C@@H](CCN2CCC(O)CC2)NC(=O)c2nc3cc4c(nc3s2)CC[C@H](C(C)(C)C)C4)cc1 (racemic) [Example 171]', 'EC50', 913),
  ('CC(C)(C)[C@H]1CCc2nc3sc(C(=O)N[C@H](CCN4CCC(CO)C4)c4ccc(-c5ccc(=O)[nH]c5)cc4)nc3cc2C1 (mixture of isomers) [Example 74]', 'EC50', 328),
  ('CC(C)(C)[C@H]1CCc2nc3sc(C(=O)N[C@H](CCN4CC(O)C4)c4ccc(-c5ccc(=O)[nH]c5)cc4)cc3cc2C1 (racemic) [Example 48]', 'EC50', 679),
  ('CC(C)(C)[C@H]1CCc2nc3sc(C(=O)N[C@H](CCN4CCC(O)CC4)c4cccc(C(=O)NC5CCCNC5)c4)nc3cc2C1 (mixture of isomers) [Example 143]', 'EC50', 276),
  ('CC(C)(C)[C@H]1CCc2nc3sc(C(=O)N[C@H](CCN4CCC[C@H]4CO)c4ccccc4)cc3cc2C1 [Example 257]', 'EC50', 886),
  ('CC(C)(C)[C@H]1CCc2nc3sc(C(=O)N[C@H](CCNC4CCOCC4)c4ccccc4)cc3cc2C1 [Example 248]', 'EC50', 6320),
  ('CN(C)[C@H]1CN(CC[C@@H](NC(=O)c2cc3cc4c(nc3s2)CC[C@H](C(C)(C)C)C4)c2ccc(-c3ccc(=O)[nH]c3)cc2)C[C@@H]1O (racemic) [Example 70]', 'EC50', 1970),
  ('CC(C)(C)[C@H]1CCc2nc3sc(C(=O)N[C@H](CCN4CCC(O)CC4)c4ccc(-n5cncn5)cc4)nc3cc2C1 [Example 84]', 'EC50', 802),
  ('COC(=O)C1CCN(CC[C@@H](NC(=O)c2nc3cc4c(nc3s2)CC[C@@](F)(C(C)C)C4)c2ccc(-c3ccnnc3)nc2)CC1 [Example 269]', 'EC50', 1850),
  ('COC[C@@H]1CCCN1CC[C@@H](NC(=O)c1cc2cc3c(nc2s1)CC[C@H](C(C)(C)C)C3)c1ccc(-c2ccc(=O)[nH]c2)cc1 (racemic) [Example 43]', 'EC50', 663),
  ('CN1CCC(CNC(=O)c2cccc([C@@H](CCN3CCC(O)CC3)NC(=O)c3nc4cc5c(nc4s3)CC[C@H](C(C)(C)C)C5)c2)C1 (mixture of isomers) [Example 142]', 'EC50', 258),
  ('CCS(=O)(=O)c1ccc([C@@H](CCN2CCC(O)CC2)NC(=O)c2nc3cc4c(nc3s2)CC[C@H](C(C)(C)C)C4)cn1 [Example 227]', 'EC50', 696),
  ('CC(C)(C)[C@H]1CCc2nc3sc(C(=O)N[C@H](CCN4CCC(F)CC4)c4ccccc4)cc3cc2C1 [Example 252]', 'EC50', 6300);

----------
Biological target: hNPRA (Homo sapiens)
Assay: NPRA Functional Cell Assay (cGMP HTRF, NPRA HEK JumpIn stable cells)
Settings: cGMP production, 1 hour at 37° C., 10-point dose response
property-label: EC50 (nM)

INSERT INTO assay_data (compound, target_of_assay, result_value) VALUES
  ('CC(C)(C)[C@H]1CCc2nc3sc(C(=O)N[C@H](CCN4CCCCC4)c4ccc(-c5ccc(O)nc5)cc4)cc3cc2C1 (racemic) [Example 32]', 'hNPRA (Homo sapiens)', 478),
  ('CC(C)(C)[C@H]1CCc2nc3sc(C(=O)N[C@H](CCN4CCC(O)CC4)c4cccc(C(=O)NC5CCNCC5)c4)nc3cc2C1 (racemic) [Example 133]', 'hNPRA (Homo sapiens)', 117),
  ('CC(C)(C)[C@H]1CCc2nc3sc(C(=O)N[C@H](CCN4CCC(C(=O)O)CC4)c4ccc(-c5cnc(O)c(F)c5)cc4)nc3cc2C1 [Example 223]', 'hNPRA (Homo sapiens)', 200),
  ('CN(C)CC[C@@H](NC(=O)c1nc2cc3c(nc2s1)CC[C@H](C(C)(C)C)C3)c1cccc(C(=O)N[C@H]2CCNC2)c1 (racemic) [Example 89]', 'hNPRA (Homo sapiens)', 230);
